Measured values drawn from patent US10537521B2 for this set.

# experiment: Example 1: multiple-dose randomized 3-way crossover PK study of two IV tramadol regimens vs 100 mg oral q6h
# assay_context: human, plasma, iv, 50 mg, C1 h, 50 mg IV regimen (h 0, 2, 4, then q4h to h 44); plasma, mean
Counter-ions that a name gives are not always drawn.
reported_property: concentration at 1 h (ng/mL)
All answers are understood in ng/mL, so give the number only.

Entry under test: COc1cccc([C@]2(O)CCCC[C@H]2CN(C)C)c1 (racemic) [Tramadol, hydrochloride] . Its concentration at 1 h was 243

---

# experiment: Example 1: multiple-dose randomized 3-way crossover PK study of two IV tramadol regimens vs 100 mg oral q6h
# assay_context: human, plasma, iv, 50 mg, plasma concentration, Mean, 50 mg IV Dose (h 0, 2, 4, then q4h to h 44); Time 44.8 hr
Where a name gives a salt, the structure may show the parent alone.
reported_property: concentration at 44.8 h (ng/mL)
All answers are understood in ng/mL, so give the number only.

Entry under test: COc1cccc([C@]2(O)CCCC[C@H]2CN(C)C)c1 (racemic) [Tramadol, hydrochloride] . Its concentration at 44.8 h was 645
